- tested.target: Transmembrane protease serine 6 (Homo sapiens)
- protocol.description: Inhibition of human matriptase-2 transfected in HEK cells assessed as residual activity at 40 uM using Boc-Gln-Ala-Arg-AMC as substrate after 20 mins by fluorimetric analysis
- Type: cell-based
- settings: HEK293
assay.metric: Activity (%)

[[record]]
smiles_input = "N=C(N)c1ccc(OCc2ccccc2COc2ccc(C(=N)N)cc2)cc1"
unit_of_measurement = "%"
observed = 19

[[record]]
smiles_input = "N=C(N)c1ccc(NC(=O)CCCCC(=O)Nc2ccc(C(=N)N)cc2)cc1"
unit_of_measurement = "%"
observed = 57

[[record]]
smiles_input = "N=C(N)c1ccc(NC(=O)CCCCCCCCCCC(=O)Nc2ccc(C(=N)N)cc2)cc1"
unit_of_measurement = "%"
observed = 49


[I] N=C(N)c1ccc(NCCCCCCCNc2ccc(C(=N)N)cc2)cc1
[II] N=C(N)c1ccc(NCCCCCCCCNc2ccc(C(=N)N)cc2)cc1
Q: Which has the higher Activity, I or II ? Respond using the label that marks the chosen record.
Result: I
(I: 16%, II: 8.6%)

---

- tested.target: Transmembrane protease serine 6 (Homo sapiens)
- Sequence (whole entry): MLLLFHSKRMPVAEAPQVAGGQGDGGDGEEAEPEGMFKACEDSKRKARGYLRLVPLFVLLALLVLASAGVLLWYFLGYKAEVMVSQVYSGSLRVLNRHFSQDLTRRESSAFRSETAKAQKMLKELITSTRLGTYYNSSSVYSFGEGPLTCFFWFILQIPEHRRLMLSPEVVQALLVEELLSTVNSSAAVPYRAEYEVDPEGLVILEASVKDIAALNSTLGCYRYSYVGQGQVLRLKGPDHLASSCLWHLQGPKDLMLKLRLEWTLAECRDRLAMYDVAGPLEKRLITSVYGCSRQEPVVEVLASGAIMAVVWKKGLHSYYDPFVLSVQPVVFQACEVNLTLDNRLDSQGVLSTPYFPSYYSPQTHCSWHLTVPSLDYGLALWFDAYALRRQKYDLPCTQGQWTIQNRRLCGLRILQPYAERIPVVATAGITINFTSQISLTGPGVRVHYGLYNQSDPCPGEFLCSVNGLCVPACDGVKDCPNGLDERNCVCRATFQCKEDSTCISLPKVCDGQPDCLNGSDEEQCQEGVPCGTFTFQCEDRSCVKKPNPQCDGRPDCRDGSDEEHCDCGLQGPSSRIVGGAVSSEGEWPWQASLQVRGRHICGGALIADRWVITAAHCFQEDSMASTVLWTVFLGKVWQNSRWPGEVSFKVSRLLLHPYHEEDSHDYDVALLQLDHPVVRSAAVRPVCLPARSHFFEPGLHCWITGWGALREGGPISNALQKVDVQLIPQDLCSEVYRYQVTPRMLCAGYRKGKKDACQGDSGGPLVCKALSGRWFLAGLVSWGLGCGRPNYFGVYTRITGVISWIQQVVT
- protocol.description: Inhibition of human matriptase-2 transfected in HEK cells assessed as residual activity at 40 uM using Boc-Gln-Ala-Arg-AMC as substrate after 20 mins by fluorimetric analysis
- Assay type: cell-based
- settings: HEK293
assay.metric: Activity (%)

Answered examples (5):
[[record]]
smiles_input = "N=C(N)c1ccc(NC(=O)CCCCCCC(=O)Nc2ccc(C(=N)N)cc2)cc1"
assay_metric = "Activity"
unit_of_measurement = "%"
observed = 62

[[record]]
smiles_input = "N=C(N)c1ccc(NC(=O)CCCCCCCCC(=O)Nc2ccc(C(=N)N)cc2)cc1"
assay_metric = "Activity"
unit_of_measurement = "%"
observed = 33

[[record]]
smiles_input = "N=C(N)c1ccc(NCCCCCCNc2ccc(C(=N)N)cc2)cc1"
assay_metric = "Activity"
unit_of_measurement = "%"
observed = 21

[[record]]
smiles_input = "N=C(N)c1ccc(NC(=O)CCCC(=O)Nc2ccc(C(=N)N)cc2)cc1"
assay_metric = "Activity"
unit_of_measurement = "%"
observed = 68

[[record]]
smiles_input = "N=C(N)c1ccc(OCc2cccc(COc3ccc(C(=N)N)cc3)c2)cc1"
assay_metric = "Activity"
unit_of_measurement = "%"
observed = 17


[I] N=C(N)c1ccc(NC(=O)CCC(=O)Nc2ccc(C(=N)N)cc2)cc1
[II] N=C(N)c1ccc(N2CCCN(c3ccc(C(=N)N)cc3)CC2)cc1
[III] N=C(N)c1ccc(NC(=O)CCCCC(=O)Nc2cccc(C(=N)N)c2)cc1
[IV] CN(CCCN(C)c1ccc(C(=N)N)cc1)c1ccc(C(=N)N)cc1
[V] N=C(N)c1ccc(N2CCN(c3ccc(C(=N)N)cc3)CC2)cc1
Q: Ascending by Activity, please. To answer, arrange all of the labels according to the requested order.
Result: V, II, IV, I, III
(V: 5.3%, II: 15%, IV: 23%, I: 40%, III: 78%)

---

- tested.target: Transmembrane protease serine 6 (Homo sapiens)
- Sequence (whole entry): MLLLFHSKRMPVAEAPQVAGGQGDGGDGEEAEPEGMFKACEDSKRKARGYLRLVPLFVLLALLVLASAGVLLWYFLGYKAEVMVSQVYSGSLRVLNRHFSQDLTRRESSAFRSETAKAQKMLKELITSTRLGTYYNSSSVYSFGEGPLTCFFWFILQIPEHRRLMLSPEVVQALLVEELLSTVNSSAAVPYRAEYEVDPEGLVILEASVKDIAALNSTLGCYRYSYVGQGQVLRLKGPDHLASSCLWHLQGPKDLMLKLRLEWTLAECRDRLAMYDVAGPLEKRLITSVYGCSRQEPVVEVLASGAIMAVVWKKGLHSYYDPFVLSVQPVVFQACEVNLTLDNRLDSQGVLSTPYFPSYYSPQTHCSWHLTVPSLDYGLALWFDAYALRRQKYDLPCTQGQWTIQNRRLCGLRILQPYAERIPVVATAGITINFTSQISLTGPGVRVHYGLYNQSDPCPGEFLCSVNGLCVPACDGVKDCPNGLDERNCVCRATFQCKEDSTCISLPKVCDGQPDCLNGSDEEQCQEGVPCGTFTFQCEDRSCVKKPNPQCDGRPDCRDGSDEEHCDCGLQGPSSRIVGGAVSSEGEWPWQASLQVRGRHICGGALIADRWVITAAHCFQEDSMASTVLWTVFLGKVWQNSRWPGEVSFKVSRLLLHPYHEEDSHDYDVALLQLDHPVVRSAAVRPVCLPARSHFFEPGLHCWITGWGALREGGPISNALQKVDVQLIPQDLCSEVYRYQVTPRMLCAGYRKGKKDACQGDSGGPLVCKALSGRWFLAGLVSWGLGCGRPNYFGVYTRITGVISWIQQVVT
- protocol.description: Inhibition of human matriptase-2 transfected in HEK cells assessed as residual activity at 40 uM using Boc-Gln-Ala-Arg-AMC as substrate after 20 mins by fluorimetric analysis
- Assay type: cell-based
- settings: HEK293
assay.metric: Activity (%)

[I] N=C(NC1CC1)c1ccc(N2CCCN(c3ccc(C(=N)NC4CC4)cc3)CC2)cc1
[II] CN(CCNc1ccc(C(=N)N)cc1)c1ccc(C(=N)N)cc1
Q: Param metric = Activity; output whichever of I , II has the minimum value. Respond using the label that marks the chosen record.
Result: II

[1] N=C(N)c1ccc(NCCCNc2ccc(C(=N)N)cc2)cc1
[2] N=C(N)c1ccc(OCc2ccc(COc3ccc(C(=N)N)cc3)cc2)cc1
[3] N=C(N)c1ccc(NCCNc2ccc(C(=N)N)cc2)cc1
Q: Sort by Activity, descending. To answer, arrange all of the labels according to the requested order.
Result: 1, 3, 2

[A] N=C(N)c1ccc(NC(=O)CCCCCCCC(=O)Nc2ccc(C(=N)N)cc2)cc1
[B] N=C(N)c1ccc(NC(=O)C(=O)Nc2ccc(C(=N)N)cc2)cc1
Q: Which has the higher Activity, A or B ? Respond using the label that marks the chosen record.
Result: A

[a] N=C(N)c1ccc(NC(=O)CCCCCC(=O)Nc2ccc(C(=N)N)cc2)cc1
[b] N=C(N)c1ccc(NC(=O)c2cccc(C(=O)Nc3ccc(C(=N)N)cc3)c2)cc1
Q: Which has the higher Activity, a or b ? Respond using the label that marks the chosen record.
Result: a

[a] N=C(N)c1ccc(COc2ccccc2OCc2ccc(C(=N)N)cc2)cc1
[b] N=C(N)c1ccc(NCCCCNc2ccc(C(=N)N)cc2)cc1
Q: Param metric = Activity; output whichever of a , b has the minimum value. Respond using the label that marks the chosen record.
Result: b
